Molecular target: 5-HT2A receptor (Rattus norvegicus, UniProt P14842)
Construct: Cerebral cortex was homogenized in 10 volumes of ice cold 0.32 M sucrose; from tissue; host or cells: rat cerebral cortex (male Sprague-Dawley)
Sequence (P14842 whole entry): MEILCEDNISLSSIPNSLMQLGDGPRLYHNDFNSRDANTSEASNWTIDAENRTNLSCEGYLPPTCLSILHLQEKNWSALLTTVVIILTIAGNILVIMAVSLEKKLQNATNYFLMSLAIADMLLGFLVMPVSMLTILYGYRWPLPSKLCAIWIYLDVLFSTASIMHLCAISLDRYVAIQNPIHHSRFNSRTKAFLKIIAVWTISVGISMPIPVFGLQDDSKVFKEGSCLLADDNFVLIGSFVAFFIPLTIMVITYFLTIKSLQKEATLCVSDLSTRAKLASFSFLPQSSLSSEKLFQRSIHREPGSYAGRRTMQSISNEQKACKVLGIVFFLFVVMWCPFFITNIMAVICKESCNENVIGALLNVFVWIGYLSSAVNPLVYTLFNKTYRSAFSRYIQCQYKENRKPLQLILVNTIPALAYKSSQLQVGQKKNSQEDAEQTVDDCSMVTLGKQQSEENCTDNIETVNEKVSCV
Assay: 5-HT2A receptor binding, [3H]-Ketanserine displacement
Conditions: rat cortex tissue, read-out: K1 (nM) for 5-HT2A (Rat cortex tissue)
REPORTED_ENDPOINT: Ki (nM)
# output: bare number, implied unit nM

Known Ki results, listed for orientation:
COMPOUND	SYSTEM	UNIT_LABEL	Ki
O=c1[nH]c2cccc(O)c2n1CCN1CCN(c2cccc(C(F)(F)F)c2)CC1 [Compound 4]	5-HT2A receptor (Rattus norvegicus, UniProt P14842)	nM	23.8
O=c1[nH]c2ccccc2n1CCN1CCN(c2ccc(O)c(C(F)(F)F)c2)CC1 [Compound 5]	5-HT2A receptor (Rattus norvegicus, UniProt P14842)	nM	705
O=c1[nH]c2cc(O)ccc2n1CCN1CCN(c2cccc(C(F)(F)F)c2)CC1 [Compound 1]	5-HT2A receptor (Rattus norvegicus, UniProt P14842)	nM	58.5

Ki in this record for O=c1[nH]c2ccc(O)cc2n1CCN1CCN(c2cccc(C(F)(F)F)c2)CC1 [Compound 2] : 33.8

// O=c1[nH]c2ccccc2n1CCN1CCN(c2cc(O)cc(C(F)(F)F)c2)CC1 [Compound 6] : Ki value = 328

Looking up O=c1[nH]c2c(O)cccc2n1CCN1CCN(c2cccc(C(F)(F)F)c2)CC1 [Compound 3] , I found its Ki recorded as 43.8

Entry O=c1[nH]c2ccccc2n1CCN1CCN(c2cc(C(F)(F)F)ccc2O)CC1 [Compound 7] , Ki reported as 4440

* * *

Target: 5-HT1A receptor (Rattus norvegicus)
Construct: from tissue; host or cells: rat hippocampus (male Sprague-Dawley)
Sequence (P19327 whole entry): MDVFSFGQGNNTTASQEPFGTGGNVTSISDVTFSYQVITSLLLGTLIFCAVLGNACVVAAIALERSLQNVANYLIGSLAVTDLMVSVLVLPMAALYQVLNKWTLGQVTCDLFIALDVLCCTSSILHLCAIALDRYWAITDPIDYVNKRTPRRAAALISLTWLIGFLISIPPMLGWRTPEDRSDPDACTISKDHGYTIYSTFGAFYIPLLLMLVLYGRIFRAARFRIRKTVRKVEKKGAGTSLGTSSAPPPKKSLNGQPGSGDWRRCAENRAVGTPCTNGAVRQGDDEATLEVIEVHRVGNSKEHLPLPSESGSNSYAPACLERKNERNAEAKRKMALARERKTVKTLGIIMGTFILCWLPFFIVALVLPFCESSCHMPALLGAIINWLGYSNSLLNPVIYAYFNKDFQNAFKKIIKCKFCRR
Experiment: 5-HT1A receptor binding, [3H]-8-OH-DPAT displacement
Settings: rat hippocampus tissue, read-out: K1 (nM) for 5-HT1A (rat hippocampus tissue)
REPORTED_ENDPOINT: Ki (nM)
Field format: number, assumed nM, no unit text.

COMPOUND	REPORTED_VALUE
O=c1[nH]c2ccccc2n1CCN1CCN(c2ccc(O)c(C(F)(F)F)c2)CC1 [Compound 5]	369
O=c1[nH]c2c(O)cccc2n1CCN1CCN(c2cccc(C(F)(F)F)c2)CC1 [Compound 3]	15.4

O=c1[nH]c2cc(O)ccc2n1CCN1CCN(c2cccc(C(F)(F)F)c2)CC1 [Compound 1] yielded Ki of 40.8

* * *

Molecular target: 5-HT1A receptor (Rattus norvegicus)
Construct: from tissue; host or cells: rat hippocampus (male Sprague-Dawley)
Assay: 5-HT1A receptor binding, [3H]-8-OH-DPAT displacement
Conditions: rat hippocampus tissue, read-out: K1 (nM) for 5-HT1A (rat hippocampus tissue)
Protocol: Male Sprague-Dawley rats (200-250 g) were used. The hippocampus taken from these animals was homogenized in 10 volumes of ice cold 50 mM TIUS buffer (pH 7.4). […] Displacement experiments were performed by incubating the homogenate (980 μl) in the presence of [^3 H]-8-OH-DPAT (10 μl; 1.0-1.2 nM) and different concentrations of the test compounds dissolved in DMSO (10 μl), at 30° C. for 15 minutes (final volume: 1 ml). Nonspecific binding was determined in the presence of 10 μM 5-HT (10 μl). […]
REPORTED_ENDPOINT: Ki (nM)
Give just the numeric value; nM need not be written.

MOLECULE	SYSTEM	Ki, nM
O=c1[nH]c2ccccc2n1CCN1CCN(c2cc(O)cc(C(F)(F)F)c2)CC1 [Compound 6]	5-HT1A receptor (Rattus norvegicus)	156
O=c1[nH]c2ccc(O)cc2n1CCN1CCN(c2cccc(C(F)(F)F)c2)CC1 [Compound 2]	5-HT1A receptor (Rattus norvegicus)	333

O=c1[nH]c2cccc(O)c2n1CCN1CCN(c2cccc(C(F)(F)F)c2)CC1 [Compound 4] has a reported Ki of 1590

Recorded values, source patent US6281218A.
